// data source = patent US20090176846A1

assay-notes: Pharmacokinetic evaluation in SD rats
Assay type: in vivo
measurement-conditions: 50 mg/kg, n=4, 0-8 hrs
Counter-ions that a name gives are not always drawn.
assay-metric: AUC (area under the blood concentration-time curve) (µg·h/mL)
# number only, unit µg·h/mL dropped from output

CS(=O)(=O)O.Cc1nc(-c2ccc(OCCCCCOc3ccc(C(=N)NO)cc3)cc2)c(C(C)C)s1 [1 methanesulfonic acid salt]
7.01

In the following, a different molecule is considered.
Q: Field request: AUC (area under the blood concentration-time curve) | item: Cc1nc(-c2ccc(OCCCCCOc3ccc(C(=N)NO)cc3)cc2)c(C(C)C)s1 [2 methanesulfonic acid salt]
Result: 10.3

----------
assay-notes: Pharmacokinetic evaluation in SD rats
Type: in vivo
measurement-conditions: SD, rat, plasma, 50 mg/kg, n=4, read-out: Cmax (maximum blood concentration)
assay-metric: Cmax (ng/mL)
# number only, unit ng/mL dropped from output

Q: Field request: Cmax | item: Cc1nc(-c2ccc(OCCCCCOc3ccc(C(=N)NO)cc3)cc2)c(C(C)C)s1 [Free base]
Result: 1090

----------
assay-notes: Pharmacokinetic evaluation in SD rats
Format: in vivo
measurement-conditions: SD, rat, plasma, 50 mg/kg, read-out: bioavailability relative to the 1 methanesulfonic acid salt
Where a name gives a salt, the structure may show the parent alone.
assay-metric: bioavailability

Q: Field request: bioavailability | item: Cc1nc(-c2ccc(OCCCCCOc3ccc(C(=N)NO)cc3)cc2)c(C(C)C)s1 [2 methanesulfonic acid salt]
Result: > 46%
